Item-by-item account of normalized growth
# experiment_summary: chemical genetic growth profiling, strain panel (AID 1159580);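 also: tested at 20 µM; growth read once vehicle control cultures reached saturation at 30 °C; 1 = growth at the plate median or of vehicle wells; lower values mean less growth of the strain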
# reported_conditions: S. cerevisiae deletion strains, growth OD, locus YMR263W, strain SAP30, hits give low values
About 2,000 (36%) of roughly 5,500 compounds were called active. Roughly 18% stayed inconclusive and do not appear here. The list shows a part of the results.
Please state the value as a number alone, without comment.

These recorded examples may help you get a feel for the data.
compound: c1ccc2sc(C3(N4CCCCC4)CCCCC3)cc2c1
normalized growth: 1

compound: O=C1c2cccc3c([N+](=O)[O-])ccc(c23)C(=O)N1Cc1ccco1
normalized growth: 0.796

compound: CN(C)C(=S)SSC(=S)N(C)C
normalized growth: 0.0571

compound: Cc1cccc(Cn2c(C)c(C)c(S(=O)(=O)c3ccccc3)c2N)c1C
normalized growth: 1.01

compound: CC1(C)C(C=C(Cl)Cl)C1C(=O)OC(C#N)c1cccc(Oc2ccccc2)c1 (stereo not drawn)
normalized growth: 1.01

compound: CCC(=O)O[C@H]1CCC2C3CCC4=CC(=O)CC[C@]4(C)C3CC[C@@]21C (stereo partly drawn)
normalized growth: 0.963

We now examine a further compound.
State the recorded normalized growth for this entry: CC(=O)C1CCC2C3CC(=O)C4=CC(=O)CCC4(C)C3CCC12C (stereo not drawn)
0.936

* * *

# experiment_summary: chemical genetic growth profiling, strain panel (AID 1159580);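 also: tested at 20 µM; growth read once vehicle control cultures reached saturation at 30 °C; 1 = growth at the plate median or of vehicle wells; lower values mean less growth of the strain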
# reported_conditions: S. cerevisiae deletion strains, growth OD, locus YDL134C, strain PPH21, hits give low values
Hit rate of the full screen: of about 5,500 compounds, about 2,000 (36%) were called active. Roughly 18% stayed inconclusive and do not appear here. Some of the results follow.
Item-by-item account of normalized growth
Please state the value as a number alone, without comment.

molecule: CC(CCc1ccccc1)NC(C)C(O)c1ccc(O)cc1 (configuration not stated)
value_observed: 1
//
molecule: CCCc1cc(=O)c2ccc(O)cc2o1
value_observed: 0.996

We now examine a further molecule.
State the recorded normalized growth for this entry: CCC(=O)O[C@H]1[C@H](O[C@@H]2[C@@H](C)[C@H](O[C@H]3C[C@@](C)(OC)[C@@H](O)[C@H](C)O3)[C@@H](C)C(=O)O[C@H](CC)[C@@](C)(O)[C@H](O)[C@@H](C)C(=O)[C@H](C)C[C@@]2(C)O)O[C@H](C)C[C@@H]1N(C)C
0.91

* * *

# experiment_summary: chemical genetic growth profiling, strain panel (AID 1159580);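 also: tested at 20 µM; growth read once vehicle control cultures reached saturation at 30 °C; 1 = growth at the plate median or of vehicle wells; lower values mean less growth of the strain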
# reported_conditions: S. cerevisiae deletion strains, growth OD, locus YDR363W, strain ESC2, hits give low values
In all, about 5,500 compounds went through this assay and about 2,000 (36%) were called active. Inconclusive results (about 18%) are left out. Some of the results follow.
Item-by-item account of normalized growth
Please state the value as a number alone, without comment.

These recorded examples may help you get a feel for the data.
molecule: Cc1c(C(=O)c2cccc3ccccc23)c2cccc3c2n1[C@H](CN1CCOCC1)CO3
normalized growth: 0.973

molecule: COc1ccc2c(c1OC)C(=O)O[C@H]2[C@@H]1c2cc3c(cc2CCN1C)OCO3
normalized growth: 1.02

molecule: COc1ccc(CCNC[C@@H](O)c2ccc(O)cc2)cc1OC
normalized growth: 1.02

molecule: CN1CCC(=C2c3ccccc3C=Cc3ccccc32)CC1
normalized growth: 1

molecule: OCc1ccc(-c2nn(Cc3ccccc3)c3ccccc23)o1
normalized growth: 1.01

molecule: NCC(O)C1CCCCCCC1 (stereo not given)
normalized growth: 0.994

molecule: CN1CCC(=C2c3ccccc3CC(=O)c3sccc32)CC1
normalized growth: 0.985

molecule: Nc1c(S(=O)(=O)O)cc(Nc2ccc(Nc3nc(Cl)nc(Nc4ccc(S(=O)(=O)O)cc4)n3)c(S(=O)(=O)O)c2)c2c1C(=O)c1ccccc1C2=O
normalized growth: 1.01

molecule: Oc1cc2c(c(Cl)c1O)CCNCC2c1ccccc1 (stereo not given)
normalized growth: 0.977

State the recorded normalized growth for this entry: C[C@]12C[C@H](O)[C@H]3[C@@H](CCC4=CC(=O)CC[C@@]43C)[C@@H]1CC[C@@H]2C(=O)CO
0.999
